Below, each entry is listed alongside its reported GI50.
# Tested on: SK-MEL-2
# PROTOCOL_DESCRIPTION: NCI tumour cell line growth inhibition, 48 h
Active and inactive are the calls of the source. No stated cut-off is given here; in the data, active = GI50 up to about 1.1 µM and inactive = higher.

Task item: Field request: GI50 | item: `CCOP(=O)(OCC)/C(=C\n1ccc(=O)[nH]c1=S)C(=O)OC`
Reply: > 100 µM (inactive)

Task item: # iterate: `C/C=C1/CN2CC[C@@H]3c4ccccc4N4[C@H](C(=O)OC)[C@H]1C[C@H]2[C@]34/C=C/C1=COC[C@@H]2[C@H]1C[C@H]1c3c(c4ccccc4n3C)C[C@@H]2N1C`
Reply: 4.33 µM (inactive)

Task item: # iterate: `c1ccc2c3c([nH]c2c1)C1c2[nH]c4ccccc4c2CCN1CC3`
Reply: 26.8 µM (inactive)

Task item: # iterate: CCCC1CCC(=C2C(=O)CCC2=O)O1 (stereo unspecified)
Reply: > 100 µM (inactive)

Task item: # iterate: CC(C)c1c(O)ccc2c1CCC1C(C)(C)CCCC21C (stereo unspecified)
Reply: 16.7 µM (inactive)

Task item: # iterate: Cc1c(N)nc(C2CC(=O)N2CC(N)C(N)=O)nc1C(=O)NC(C(=O)NC(C)C(O)C(C)C(=O)NC(C(=O)NCCc1nc(-c2nc(C(=O)NCCNCC(C)O)cs2)cs1)C(C)O)C(OC1OC(CO)C(O)C(O)C1OC1OC(CO)C(O)C(OC(N)=O)C1O)c1c[nH]cn1 (stereo unspecified)
Reply: 38.1 µM (inactive)

====

# Tested on: SN12C
# PROTOCOL_DESCRIPTION: NCI tumour cell line growth inhibition, 48 h
Activity calls are given as the source filed them. No stated cut-off is given here; in the data, active = GI50 up to about 1.1 µM and inactive = higher.
Below, each entry is listed alongside its reported GI50.

Task item: Field request: GI50 | item: `Cn1cnc2c1c(=O)n(CCNCCO)c(=O)n2C`
Reply: > 100 µM (inactive)

Task item: # iterate: COC(=O)C(Cc1ccc(OC)cc1O)NC(=O)OC(C)(C)C (stereo not drawn)
Reply: > 100 µM (inactive)

Turning to the following molecule.
Task item: Field request: GI50 | item: CCOC(=O)C1=C(O)C2C3CC4C2C(O)=C(C(=O)OCC)C2C1C3C42 (stereo not drawn)
Reply: > 100 µM (inactive)

====

# System: SNB-75
# PROTOCOL_DESCRIPTION: NCI tumour cell line growth inhibition, 48 h
The source made the active and inactive calls. No stated cut-off is given here; in the data, active = GI50 up to about 1.1 µM and inactive = higher.
Lab note: assign the record to one of active, inactive

Here are 4 compounds together with their reported answers.
Task item: # lookup: test call for CCC(C)[C@@H](NC1=C(Cl)C(=O)c2c(O)ccc(O)c2C1=O)C(=O)OC (stereo not given in full)
Reply: inactive

Task item: # iterate: `N#CCc1nc(Cc2ccccc2)n[nH]1`
Reply: inactive

Task item: # iterate: `COc1ccccc1CNCc1nc2ccccc2[nH]1`
Reply: inactive

Task item: # iterate: COc1cc(C2c3cc4c(cc3[C@@H](NCCN(C)C)C3COC(=O)[C@H]23)OCO4)cc(OC)c1O (stereo not given in full)
Reply: active

Field: next compound
Task item: # lookup: test call for COc1ccc(Br)c2c1CC(C(=O)O)CC2 (stereo not given)
Reply: inactive

====

# Tested on: 786-0
# PROTOCOL_DESCRIPTION: NCI tumour cell line growth inhibition, 48 h
Calls of active or inactive are those of the source. Cut-off read from the data, not from the text of the source: active = GI50 up to about 1.1 µM and inactive = higher.
MEASURED_ENDPOINT: GI50

Consider the reported GI50 for these compounds:
Task item: Field request: GI50 | item: `CCC/C=C/c1cc2c(cc1O)CC[C@@H]1[C@@H]2CC[C@]2(C)[C@@H](O)CC[C@@H]12`
Reply: 15.2 µM (inactive)

Task item: # iterate: O=S(=O)(c1ccccc1)C1CN2OC1(S(=O)(=O)c1ccccc1)CC2c1ccc(Br)cc1 (stereo not given)
Reply: 38.1 µM (inactive)

Task item: # iterate: `CCOC(=O)C(=[N+]=[N-])C(=O)CSC#N`
Reply: > 100 µM (inactive)

Task item: # iterate: `COc1ccc2c(c1)CC[C@@H]1[C@@H]2CC[C@]2(C)/C(=N/OCCN3CCCCC3)CC[C@@H]12`
Reply: 1.85 µM (inactive)

Turning to the following compound.
Task item: Field request: GI50 | item: `CSc1c(C(=O)Nc2ccc(C)cc2)c(N)nn1-c1ccccc1`
Reply: 19.9 µM (inactive)

====

# System: SNB-75
# PROTOCOL_DESCRIPTION: NCI tumour cell line growth inhibition, 48 h
Active and inactive are the calls of the source. Rule as the data show it: active = GI50 up to about 1.1 µM and inactive = higher.
MEASURED_ENDPOINT: GI50

Task item: Field request: GI50 | item: `CCOC(=O)[C@@]12C(C)=CC(=O)O[C@]1(C)C[C@H]2C#N`
Reply: 20.8 µM (inactive)

Task item: # iterate: C=C1CC2CCCC12C=O (stereo not given)
Reply: > 10 µM (inactive)

Task item: # iterate: `CCc1c(O)cc(=O)oc1-c1ccc(OC)c(OC)c1`
Reply: 72.6 µM (inactive)

Task item: # iterate: `CC(=O)O[C@H]1CC[C@@]2(C)C(=CC[C@@H]3[C@@H]2CC[C@]2(C)c4c(C)n[nH]c4C[C@@H]32)C1`
Reply: 12.2 µM (inactive)

Task item: # iterate: COC(=O)C1=C(\O)C[C@@]2(C)CC[C@@H](C(=O)OC)C2C/C=C\1C(=O)OC (stereo not given in full)
Reply: > 100 µM (inactive)

Turning to the following compound.
Task item: Field request: GI50 | item: CSc1nc2c(ncn2C2OC(CO)C(O)C(O)C2O)c(=O)n1C (stereo not given)
Reply: > 100 µM (inactive)

====

# System: RXF 393
# PROTOCOL_DESCRIPTION: NCI tumour cell line growth inhibition, 48 h
Activity calls are given as the source filed them. Rule as the data show it: active = GI50 up to about 1.1 µM and inactive = higher.
Lab note: assign the record to one of T = active, F = inactive

Here are 5 molecules together with their reported answers.
Task item: # lookup: test call for `CN(C)CCNc1ccc2c(=O)n(CCN(C)C)c(=O)n3c4ccccc4c(=O)c1c23`
Reply: T

Task item: # iterate: `CN(O)C(=O)c1ccc(OCc2cccc(Cl)c2)cc1`
Reply: F

Task item: # iterate: `CCOCC(=O)N[C@H]1CCc2cc(OC(=O)COCC)c(OC)c(OC)c2-c2ccc(SC)c(=O)cc21`
Reply: T

Task item: # iterate: O=C1O/C(=C\C=C\CO)C=C1/C=C/CO [LISSOCLINOLIDE]
Reply: F

Task item: # iterate: `O=c1nc2n(c3nsnc13)CCO2`
Reply: F

Others:
Task item: # lookup: test call for `CN(C)c1ccc(C=c2c3ccccc3n3c2c2ccccc2[n+]3C)cc1`
Reply: F

Task item: # iterate: `N#Cc1ccc(Oc2nc3ccc(C(F)(F)F)cc3nc2-c2ccccc2)cc1`
Reply: F

====

# System: UACC-62
# PROTOCOL_DESCRIPTION: NCI tumour cell line growth inhibition, 48 h
Calls of active or inactive are those of the source. Cut-off read from the data, not from the text of the source: active = GI50 up to about 1.1 µM and inactive = higher.
Below, each entry is listed alongside its reported GI50.

Task item: Field request: GI50 | item: CCC1CN(C(=O)c2ccccc2)C(Cc2c[nH]c3ccccc23)C(=O)C1CC(=O)OC (configuration not stated)
Reply: 32.1 µM (inactive)

Task item: # iterate: `COC(=O)c1c(O)ccc2c1c1c(n2Cc2cc(OC)cc(OC)c2)C(=O)c2ccccc2C1`
Reply: 49.2 µM (inactive)

Task item: # iterate: `CCOC(=O)CC[C@H](NC(=O)N[C@H](C)c1ccccc1)C(=O)OCC`
Reply: 16.1 µM (inactive)

Task item: # iterate: `O=[N+]([O-])c1ccc(-c2ccc(-c3csc(Nc4ccccn4)n3)o2)cc1`
Reply: 29.9 µM (inactive)

Task item: # iterate: COc1cc([C@@H]2OC[C@@H]3C(c4cc(OC)c5c(c4)OCO5)OC[C@@H]32)cc(OC)c1OC (some centres not stated)
Reply: 49.1 µM (inactive)

Others:
Task item: Field request: GI50 | item: `ClCC[N+]12CC[N+](CCCl)(CC1)C2`
Reply: > 100 µM (inactive)

Task item: # iterate: `O=C(O)c1cnc2cc(OCc3ccccc3)ccc2c1O`
Reply: 16.8 µM (inactive)

====

# System: HOP-62
# PROTOCOL_DESCRIPTION: NCI tumour cell line growth inhibition, 48 h
The source made the active and inactive calls. No stated cut-off is given here; in the data, active = GI50 up to about 1.1 µM and inactive = higher.
Lab note: assign the record to one of 1 (yes) (active), 0 (no) (inactive)

Here are 3 compounds together with their reported answers.
Task item: # lookup: test call for `O=C(c1ccccc1)c1c(-c2ccccc2)n(-c2ccccc2)[nH]c(=O)c1=O`
Reply: 0 (no)

Task item: # iterate: `CC[C@@H](C)[C@H]([C@H](CC(=O)N1CCC[C@@H]1[C@@H](OC)[C@H](C)C(=O)N[C@H](Cc1ccccc1)c1nccs1)OC)N(C)C(=O)[C@H](NC(=O)[C@@H](C(C)C)N(C)C)C(C)C`
Reply: 1 (yes)

Task item: # iterate: COc1cc(Br)c(CC2NCCc3cc(OC)c(OC)cc32)cc1OC (configuration not stated)
Reply: 0 (no)

Others:
Task item: # lookup: test call for `COc1ccccc1NS(=O)(=O)c1cc(C(C)(C)C)ccc1OCCOc1ccc(C(C)(C)C)cc1S(=O)(=O)Nc1ccccc1OC`
Reply: 0 (no)

Task item: # iterate: `O=C1C(c2ccccc2)=C(c2ccccc2)C(c2ccc(-c3ccc(C4=C(c5ccccc5)C(=O)C(c5ccccc5)=C4c4ccccc4)cc3)cc2)=C1c1ccccc1`
Reply: 0 (no)

Task item: # iterate: `COC(=O)c1c(-c2ccccc2)cc2c3cc(-c4ccccc4)c(C(=O)OC)n3c3ccccc3n12`
Reply: 0 (no)

Task item: # iterate: `COc1ccc2c(c1)CC[C@@H]1[C@@H]2CC[C@]2(C)/C(=N/OCCN3CCCC3)CC[C@@H]12`
Reply: 0 (no)

Task item: # iterate: COC1/C=C/O[C@@]2(C)Oc3c(C)c(O)c4c(O)c(cc(O)c4c3C2=O)NC(=O)/C(C)=C\C=C\[C@H](C)C(O)[C@@H](C)[C@@H](O)[C@@H](C)[C@H](OC(C)=O)[C@@H]1C (some centres not stated)
Reply: 0 (no)

Task item: # iterate: `CC(=O)Oc1c(OC(C)C)cc(=O)n2ccsc12`
Reply: 0 (no)

Task item: # iterate: CC(Oc1ccccc1)C(=O)NNC(=O)OC(C)(C)C (configuration not stated)
Reply: 0 (no)

Task item: # iterate: O=C(C1OC1c1ccc([N+](=O)[O-])cc1)C12CC3CC(CC(C3)C1)C2 (configuration not stated)
Reply: 0 (no)

Task item: # iterate: `CCOC(=O)c1nc2ccc(C(F)(F)F)cc2nc1Oc1ccc(F)cc1`
Reply: 0 (no)
